- Tested on: UO-31
- assayProcedure: NCI tumour cell line growth inhibition, 48 h
The source made the active and inactive calls. Cut-off read from the data, not from the text of the source: active = GI50 up to about 1.1 µM and inactive = higher.
propertyLabel: GI50

Q) Please report the recorded GI50 for Clc1ccc(/C=C/c2nc(Cl)c(-c3ccc(Cl)cc3)c(Cl)n2)cc1 .
A) 13.6 µM (inactive)

Q) Reported GI50, compound O=[N+]([O-])c1ccc(CSc2nn(Cc3ccc([N+](=O)[O-])cc3)cc3ncnc2-3)cc1 : ____
A) 12.1 µM (inactive)

Q) So what's the measured GI50 for this one? O=C(C(=O)N1CC2C=CC1CC2)c1c[nH]c2ccccc12 (stereo not given)
A) > 100 µM (inactive)

Q) Would you mind telling me what GI50 value was observed for COc1cc(O)c2c(c1)C(=O)c1cc(C)cc(O)c1C2=O ?
A) > 100 µM (inactive)

Q) For the compound CC(=O)/N=C1\NC(=O)/C(=C/c2ccc(/C=C3/C(=O)N/C(=N\C(C)=O)N3C)cc2)N1C , what GI50 is on record?
A) > 100 µM (inactive)
